Reference source: patent US7071180B2

Where a name gives a salt, the structure may show the parent alone.
Recorded melting point by entry

// known answers, use as guide
compound="CN1CC(COc2nccnc2N2CCNCC2)Oc2ccccc21 (stereo not drawn) (as salt: hydrochloride)" quantity_name="melting point" result="119 °C (dec.)"
compound="Cc1ncccc1OCCOc1nccnc1N1CCNCC1 (as salt: hydrochloride)" quantity_name="melting point" result="50 °C (dec.)"
compound="COc1ccccc1CCCOc1nccnc1N1CCNCC1 (as salt: maleate)" quantity_name="melting point" result="132 to 133 °C"
compound="c1ccc(OCCOc2nccnc2N2CCNCC2)nc1 (as salt: maleate)" quantity_name="melting point" result="130 to 132 °C"
compound="Fc1cc(F)c(F)c(OCCOc2nccnc2N2CCNCC2)c1 (as salt: fumarate)" quantity_name="melting point" result="158 to 159 °C"

Q. What does the data say about its melting point? Entry: c1cnc(N2CCNCC2)c(OCC2CCCO2)n1 (stereo not drawn) (as salt: hydrochloride)
A. 130 to 136 °C

Q. Next compound: Clc1cc2nc(OCCOc3cccnc3)c(N3CCNCC3)nc2cc1Cl (as salt: maleate)
A. 187 to 189 °C
